Listing of recorded melting point by entry.

melting point in this record for N#CCc1ccccc1O : 118 °C

melting point in this record for CC(=O)O[C@@H](C)C(=O)Nc1c(C(=O)c2ccccc2)[nH]c2cc(Cl)ccc12 : 80 to 85 °C

melting point in this record for COc1ccc(C(=O)Nc2c(Cl)cncc2Cl)cc1OC1CC=CC1 : 193 to 195 °C

melting point in this record for COC(=O)C1C(=O)Nc2cccc(C(F)(F)F)c2CC1c1ccc(OC)cc1 (stereo unspecified) : 214 to 216 °C

melting point in this record for COc1ccc(COc2ccc(N)cc2)cc1 : 118 to 120 °C

* * *

resultType: melting point

structureSmilesString	result
C(=CCN(c1ccccc1)c1ccccc1)CN(c1ccccc1)c1ccccc1	105 to 107 °C
COc1ccc(N2CCN(c3ccc(OC)nc3-c3ccc(OCC(F)(F)F)cc3)CC2)cc1	104 to 107 °C
CC(C)NC(=O)NCCc1c2c3c(nc(N)c2nn1C)CCCC3	237 to 238 °C
COCOc1cccc2c(Br)cccc12	49 to 50 °C
CC(C)Oc1ccc2c(c1)N(CCCN1CCC(CCO)CC1)c1cccc(S(C)(=O)=O)c1S2	50 °C

melting point in this record for C=C(C)C(=O)Oc1cccc(-c2cccc(OC(=O)C(=C)C)c2)c1 : 70 °C
